- experimental target: DRB1*0701 (DR7) (Homo sapiens, UniProt P01903+P01911, A100R/A102G/A103Q/D57E/D86V/E43K/F76Y/K127E/L162R/M171V/P40G/Q125H/Q99D/R33Q/R42Y/R54Q/S133A/S66F/T210M/V115G/Y107V/Y59L/Y89S)
- Construct: Epstein-Barr virus (EBV) transformed homozygous cell lines were used as sources; endogenous in cells; host or cells: PITOUT (EBV-transformed homozygous B cell line)
- assay notes: biochemical
- Assay type: binding
- condition summary: Binding Capacity (IC 50% nM) DR1,4,7 DR7
outcome measure: IC50

Fill blank: measured IC50 of the compound CC(C)[C@H](NC(=O)[C@H](Cc1ccccc1)NC(=O)[C@H](CCCCN)NC(=O)[C@H](Cc1ccc(O)cc1)NC(=O)[C@H](C)N)C(=O)N[C@H](C(=O)N1CCC[C@H]1C(=O)NCC(=O)N[C@@H](C)C(=O)N[C@@H](C)C(=O)N[C@H](C(=O)N1CCC[C@H]1C(=O)N[C@@H](Cc1ccc(O)cc1)C(=O)N[C@@H](C)C(=O)NCC(=O)O)[C@@H](C)O)C(C)C [Peptide 27.412] is ____. < 1000 nM

// next record CC(C)C[C@H](NC(=O)[C@H](Cc1c[nH]c2ccccc12)NC(=O)[C@@H](NC(=O)[C@H](Cc1ccccc1)NC(=O)[C@@H](NC(=O)[C@@H]1CCCN1C(=O)[C@H](CC(C)C)NC(=O)[C@H](C)NC(=O)[C@@H]1CCCN1C(=O)[C@H](CC(C)C)NC(=O)[C@H](Cc1ccccc1)NC(=O)[C@H](Cc1ccccc1)NC(=O)[C@H](CCC(N)=O)NC(=O)[C@H](CO)NC(=O)[C@@H](NC(=O)[C@@H](N)CC(C)C)[C@@H](C)O)C(C)C)[C@@H](C)O)C(=O)O [Peptide 1136.16] < 1000 nM

// next record CC[C@H](C)[C@H](NC(=O)[C@H](CC(C)C)NC(=O)[C@H](Cc1ccccc1)NC(=O)[C@H](CS)NC(=O)[C@@H](NC(=O)[C@H](C)NC(=O)[C@@H](N)Cc1ccccc1)[C@@H](C)O)C(=O)N1CCC[C@H]1C(=O)N[C@@H](CC(C)C)C(=O)N[C@H](C(=O)N[C@@H](CO)C(=O)N[C@@H](CCC(N)=O)C(=O)N[C@@H](Cc1ccccc1)C(=O)N[C@@H](Cc1ccccc1)C(=O)N[C@@H](CC(C)C)C(=O)N1CCC[C@H]1C(=O)O)[C@@H](C)O [Peptide 1136.14] < 1000 nM

// next record CC[C@H](C)[C@H](NC(=O)[C@H](CC(=O)O)NC(=O)[C@H](CC(C)C)NC(=O)[C@@H](NC(=O)CNC(=O)[C@@H](NC(=O)[C@@H](NC(=O)[C@@H](NC(=O)[C@@H](NC(=O)[C@H](C)NC(=O)[C@H](CC(C)C)NC(=O)[C@@H](NC(=O)[C@H](CC(N)=O)NC(=O)[C@H](CO)NC(=O)[C@H](CC(C)C)NC(=O)[C@@H](N)CC(N)=O)C(C)C)[C@@H](C)O)[C@@H](C)CC)[C@@H](C)O)[C@@H](C)O)C(C)C)C(=O)O [Peptide 1136.24] < 1000 nM

// next record CSCC[C@H](NC(=O)[C@H](C)NC(=O)[C@H](CC(C)C)NC(=O)[C@@H]1CCCN1C(=O)[C@@H](NC(=O)[C@H](C)NC(=O)[C@H](Cc1c[nH]cn1)NC(=O)[C@H](CC(N)=O)NC(=O)[C@@H](NC(=O)[C@H](Cc1c[nH]c2ccccc12)NC(=O)[C@H](CC(N)=O)NC(=O)[C@H](Cc1c[nH]cn1)NC(=O)[C@@H](N)CCCNC(=N)N)C(C)C)C(C)C)C(=O)N[C@@H](CCCCN)C(=O)N[C@@H](CC(C)C)C(=O)O [Peptide 1188.45] < 1000 nM
